- Test system: NIH3T3
- experimental-protocol: Cytotoxicity against mouse 3T3 cells assessed as LDH release per mg of protein at LD10 concentration after 1 hr by spectrophotometric analysis
- Format: cell-based
- condition-notes: nih3t3, 1 h
quantity-measured: Activity (IU)
Write the answer as a number in IU, unit excluded.

NIH3T3 Activity of `CCOP(=O)(OCC)C(C)(C)NCCCCCC[P+](c1ccccc1)(c1ccccc1)c1ccccc1.[Br-]` is 14.9

NIH3T3 Activity of CCOP(=O)(OCC)C(NCCCCCC[P+](c1ccccc1)(c1ccccc1)c1ccccc1)C(C)C.[Br-] (racemic) is 15.9

NIH3T3 Activity of `CCOP(=O)(OCC)C(C)(C)NCCCCCCCC[P+](c1ccccc1)(c1ccccc1)c1ccccc1.[Br-]` is 17.7

NIH3T3 Activity of CCOP(=O)(OCC)C(C)(CCC[P+](c1ccccc1)(c1ccccc1)c1ccccc1)NCC(C)C.[Br-] (racemic) is 12.9

NIH3T3 Activity of CCOP(=O)(OCC)C(NCCCCCCCC[P+](c1ccccc1)(c1ccccc1)c1ccccc1)C(C)C.[Br-] (racemic) is 49.4
